- TEST SYSTEM: hα7-wt nAChR-expressing GH4C1 cells (Homo sapiens, UniProt P36544)
- Construct: expressed in transfected cells
- Sequence (P36544 23-502): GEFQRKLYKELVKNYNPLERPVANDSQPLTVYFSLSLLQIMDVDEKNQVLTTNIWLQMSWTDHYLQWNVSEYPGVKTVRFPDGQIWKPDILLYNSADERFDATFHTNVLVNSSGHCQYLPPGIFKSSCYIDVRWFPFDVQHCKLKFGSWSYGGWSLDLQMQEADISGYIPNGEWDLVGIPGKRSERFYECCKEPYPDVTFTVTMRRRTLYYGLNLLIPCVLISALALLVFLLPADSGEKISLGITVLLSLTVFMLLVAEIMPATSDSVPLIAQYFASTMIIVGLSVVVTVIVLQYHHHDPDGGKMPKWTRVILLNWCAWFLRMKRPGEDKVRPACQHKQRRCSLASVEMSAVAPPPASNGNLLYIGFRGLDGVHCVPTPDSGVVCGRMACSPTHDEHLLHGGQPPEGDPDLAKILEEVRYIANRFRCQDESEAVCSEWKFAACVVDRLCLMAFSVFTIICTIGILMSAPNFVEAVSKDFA
- ASSAY NAME: Patch-clamp current recording (whole-cell voltage clamp), potentiation of the choline current and PAM type
- Format: cell-based
- Set-up: key: Type 0 compounds minimally enhance the effect size of the current elicited by 1 mM choline.; Type 1 compounds enhance the effect size of the current elicited by 1 mM choline but minimally alter the kinetics of the receptor.; Type 2 compounds enhance the effect size of the current elicited by 1 mM choline while reducing the rate and/or the extent of desensitization.; Type 3 compounds enhance the effect size of the current elicited by 1 mM choline. When tested at higher concentrations up to 10 μM they completely inhibit desensitization, in particular a 1 mM choline application of 250 milliseconds.; Type 4 compounds allow for an initial desensitization of the receptor followed by a re-opening of the receptor during agonist application
- MEASUREMENT CONTEXT: 1 mM choline
Rule: PAM type below 2 gives yes, anything at or above gives no.

*Q* Criterion: PAM type strictly below 2. Is it met by CC[C@H](O)Cn1nc(Nc2cccc(Cl)c2)cc1-c1cc(C)nc(C)c1 [compound 58] ?
*A* yes

*Q* Same again, this time with CNC(=O)Cn1nc(Nc2cccc(C(F)(F)F)c2)cc1-c1ccc2c(c1)OCCO2 [compound 76]
*A* no

*Q* Subsequent entry: Cc1cc(-c2cc(Nc3cccc(OC(F)(F)F)c3)nn2CCC(=O)N(C)C)cc(C)n1 [compound 165]
*A* yes

*Q* Also, Cc1cnccc1-c1cc(Nc2cc(F)cc(C(F)(F)F)c2)nn1CCC(=O)N(C)C [compound 9] please.
*A* no

*Q* Same question for CC[C@H](O)Cn1nc(Nc2cc(Cl)cc(OC)c2)cc1-c1ccnc(C)c1 [compound 122] please.
*A* yes

*Q* Try this compound next: CCNc1cc(-c2cc(Nc3ccc(F)c(F)c3F)nn2C[C@@H](O)CC)ccn1 [compound 135]
*A* yes

*Q* Try this compound next: CNC(=O)Cn1nc(Nc2ccc3c(c2)OC(F)(F)O3)cc1-c1ccncc1 [compound 86]
*A* no

*Q* # repeat for CCNC(=O)Cn1nc(Nc2ccc3c(c2)OC(F)(F)O3)cc1-c1ccncc1 [compound 87]
*A* no

*Q* Next compound up: CN(C)C(=O)CCn1nc(Nc2ccc(F)c(F)c2)cc1-c1ccncc1 [compound 21]
*A* no

*Q* Then COCc1cc(-c2cc(Nc3ccc(F)c(F)c3)nn2CCC(=O)N(C)C)ccn1 [compound 70] ?
*A* no

*Q* // query: CCNc1cc(-c2cc(Nc3ccc(F)c(C(F)(F)F)c3)nn2C[C@@H](O)CC)cc(C)n1 [compound 68]
*A* yes

*Q* Can you check CNC(=O)Cn1nc(Nc2ccc(F)cc2)cc1-c1ccc2c(c1)OCCO2 [compound 73] next?
*A* no

*Q* Another compound to check: COc1cc(Nc2cc(-c3ccnc(C)c3)n(CC(=O)NC3CC3)n2)cc(C(F)(F)F)c1 [compound 104]
*A* no

*Q* Lookup CC[C@H](O)Cn1nc(Nc2cc(OC)cc(C(F)(F)F)c2)cc1-c1ccnc(C)c1C [compound 53]
*A* yes

*Q* Try CC[C@H](O)Cn1nc(Nc2ccc(F)c(C(F)(F)F)c2)cc1-c1ccnc(C)c1 [compound 46] next.
*A* yes

*Q* // same read-out, input: Cc1cnccc1-c1cc(Nc2ccc3c(c2)OC(F)(F)O3)nn1CCC(=O)N(C)C [compound 90]
*A* no

*Q* Entry CC[C@H](O)Cn1nc(Nc2cccc(Cl)c2)cc1-c1ccnc(COC)c1 [compound 136] please
*A* yes

###

- TEST SYSTEM: hα7-wt nAChR-expressing GH4C1 cells (Homo sapiens, UniProt P36544)
- Construct: expressed in transfected cells
- ASSAY NAME: Patch-clamp current recording (whole-cell voltage clamp), potentiation of the choline current and PAM type
- Type: cell-based
- Parameters: key: Type 0 compounds minimally enhance the effect size of the current elicited by 1 mM choline.; Type 1 compounds enhance the effect size of the current elicited by 1 mM choline but minimally alter the kinetics of the receptor.; Type 2 compounds enhance the effect size of the current elicited by 1 mM choline while reducing the rate and/or the extent of desensitization.; Type 3 compounds enhance the effect size of the current elicited by 1 mM choline. When tested at higher concentrations up to 10 μM they completely inhibit desensitization, in particular a 1 mM choline application of 250 milliseconds.; Type 4 compounds allow for an initial desensitization of the receptor followed by a re-opening of the receptor during agonist application
- MEASUREMENT CONTEXT: 1 mM choline
Kindly supply the reported PAM type values for the records listed here.
Give your answer as a number; write no unit.

*Q* Recorded PAM type of Cc1cc(-c2cc(Nc3ccc4c(c3)OC(F)(F)O4)nn2CCC(=O)N(C)C)ccn1 , please.
*A* 2

*Q* What about this compound? CC[C@H](O)Cn1nc(Nc2ccc(F)c(F)c2)cc1-c1cc(C)nc(C)c1
*A* 1

*Q* Now consider Cc1cc(-c2cc(Nc3ccc4c(c3)OC(F)(F)O4)nn2CCC(=O)N(C)C)cc(C)n1 .
*A* 2

*Q* Cool, now Cc1cc(-c2cc(Nc3cc(F)c(F)c(F)c3)nn2CC(=O)NCC2CC2)ccn1
*A* 2

*Q* Same read-out for CNC(=O)Cn1nc(Nc2cccc(OC(F)(F)F)c2)cc1-c1ccnc(C)c1 ?
*A* 2

*Q* Field entry: Cc1cc(-c2cc(Nc3cccc(Cl)c3)nn2CCC(=O)N(C)C)ccn1
*A* 2

*Q* Please do the same for CCNC(=O)Cn1nc(Nc2ccc(F)c(F)c2F)cc1-c1ccnc(C)c1 as well.
*A* 2

*Q* Try this compound too: CNC(=O)Cn1nc(Nc2cccc(C(F)(F)F)c2)cc1-c1ccnc(C)c1
*A* 2

*Q* What do you have for Cc1cc(-c2cc(Nc3cc(F)c(F)c(F)c3)nn2CCC(=O)N(C)C)ccn1 ?
*A* 2

*Q* Item: COc1cc(Nc2cc(-c3ccnc(C)c3)n(CCC(=O)N(C)C)n2)cc(C(F)(F)F)c1
*A* 4

*Q* Further, for Cc1cc(-c2cc(Nc3cccc(Cl)c3F)nn2CC(=O)NCC2CC2)ccn1 ?
*A* 2

*Q* Another compound to check: CC[C@H](O)Cn1nc(Nc2ccc(F)c(F)c2F)cc1-c1ccnc(COC)c1
*A* 2

###

- TEST SYSTEM: UniProt:P36544
- ASSAY NAME: Ca2+ flux imaging (FDSS) (Protocol B), potentiation of the choline response
- MEASUREMENT CONTEXT: Ca2+ assay as described in D.1; "<5" = activity did not reach a top plateau at maximal concentration
- Procedure: Ca^2+ Flux Imaging (FDSS) (Protocol B) […] PAM activity was detected in real time by applying the compounds to be tested to the loaded cells along with a α7 nicotinic receptor agonist during constant monitoring of cellular fluorescence in a FDSS. […] A control response to choline was calculated on each plate from the difference in peak in fluorescence in wells receiving either choline or assay buffer alone. […]
Provide the recorded log10(EC50) for the entries that follow.
Transform log10 | Measure EC50 | Unit nM

*Q* May I ask what log10(EC50) has been recorded for CCNC(=O)Cn1nc(Nc2ccc(F)c(C(F)(F)F)c2)cc1-c1ccc(C)nc1 [compound 27] ?
*A* 3.06

*Q* Let us now turn to COc1ccc(-c2cc(Nc3ccc(F)c(F)c3)nn2CCC(=O)N(C)C)cc1 [compound 102]
*A* 1.89

*Q* Would you mind doing CCNc1cc(-c2cc(Nc3ccc(F)c(F)c3)nn2C[C@@H](O)CC)ccn1 [compound 65] as well?
*A* 2.76

*Q* Same question for CC[C@H](O)Cn1nc(Nc2ccc(F)c(C(F)(F)F)c2)cc1-c1ccnc(C)c1 [compound 46] please.
*A* 2.95

*Q* Then what about the compound COCc1cc(-c2cc(Nc3ccc4c(c3)OC(F)(F)O4)nn2CCC(=O)N(C)C)ccn1 [compound 96] ?
*A* 2.26

*Q* Next record, please: Cc1cc(-c2cc(Nc3cc(F)c(F)c(F)c3)nn2CCC(=O)N(C)C)ccn1 [compound 142]
*A* 2.79

*Q* Try this compound too: CNC(=O)Cn1nc(Nc2cccc(Cl)c2F)cc1-c1ccnc(COC)c1 [compound 106]
*A* 3.29

*Q* Likewise for CCNC(=O)Cn1nc(Nc2ccc(F)c(C(F)(F)F)c2)cc1-c1cc(C)nc(C)c1 [compound 152] ?
*A* 2.67

###

- TEST SYSTEM: hα7-wt nAChR-expressing GH4C1 cells (Homo sapiens, UniProt P36544)
- Construct: expressed in transfected cells
- ASSAY NAME: Patch-clamp current recording (whole-cell voltage clamp), potentiation of the choline current and PAM type
- Type: cell-based
- Parameters: key: Type 0 compounds minimally enhance the effect size of the current elicited by 1 mM choline.; Type 1 compounds enhance the effect size of the current elicited by 1 mM choline but minimally alter the kinetics of the receptor.; Type 2 compounds enhance the effect size of the current elicited by 1 mM choline while reducing the rate and/or the extent of desensitization.; Type 3 compounds enhance the effect size of the current elicited by 1 mM choline. When tested at higher concentrations up to 10 μM they completely inhibit desensitization, in particular a 1 mM choline application of 250 milliseconds.; Type 4 compounds allow for an initial desensitization of the receptor followed by a re-opening of the receptor during agonist application
- MEASUREMENT CONTEXT: 1 mM choline
I would appreciate it if you labelled entries t when PAM type is 2 or higher, otherwise f.

*Q* Is it the case that CC[C@H](O)Cn1nc(Nc2cccc(Cl)c2F)cc1-c1ccnc(C)c1 [compound 118] has PAM type reaching or exceeding 2?
*A* f

*Q* Now try COCc1cc(-c2cc(Nc3cccc(Cl)c3)nn2CCC(=O)N(C)C)ccn1 [compound 149] .
*A* t

*Q* Same again, this time with CC[C@H](O)Cn1nc(Nc2cccc(Cl)c2)cc1-c1ccnc(C)c1 [compound 185]
*A* f

*Q* And the next one, CNC(=O)Cn1nc(Nc2cccc(OC(F)(F)F)c2)cc1-c1ccc2c(c1)OCCO2 [compound 77] ?
*A* t

*Q* Another compound to check: CNC(=O)Cn1nc(Nc2ccc3c(c2)OC(F)(F)O3)cc1-c1ccnc(COC)c1 [compound 112]
*A* t

*Q* What would you report for COCc1cc(-c2cc(Nc3ccc4c(c3)OC(F)(F)O4)nn2CCC(=O)N(C)C)ccn1 [compound 96] ?
*A* t
